experimental details: protein stability index of a GFP-peptide fusion (GPS, HEK-293T) (PSI 1-6); higher = more stable;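 further: 24-mer peptide tiles fused after GFP, lentivirally expressed, FACS-sorted into six equal bins by GFP/DsRed ratio, decoded by Illumina sequencing, PSI is the read-weighted mean bin number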
study conditions: treatment: DMSO; c terminus: a fixed tail appended
measurement label: protein stability index
Quick one: just the number, no unit, thanks!

**Q:** Which protein stability index value is on record for RNWALKESFIKAIGVGLGFELQRL [AASDHPPT] ?
**A:** 3

**Q:** Which protein stability index value is on record for EFSSVGTEMIITKAGRRMFPACRV [TBX6] ?
**A:** 2.7

**Q:** Which protein stability index value is on record for AALPLAAEETANLPPSPPPSPASE [MAP2] ?
**A:** 5.27

**Q:** Which protein stability index value is on record for ARIAIRGTIKKIIHQETVSKNGNG [PCMTD2] ?
**A:** 3.01

**Q:** Which protein stability index value is on record for NILLDKHRMVVKIGDFGISKILSS [NEK8] ?
**A:** 2.19

**Q:** Which protein stability index value is on record for FKDSAGKSPTGLKLKNDTENHQPV [ZNF75A] ?
**A:** 4.88

**Q:** Which protein stability index value is on record for MVTCKSEFYHDEFKRWIYLNDQNL [GAN] ?
**A:** 2.44

**Q:** Which protein stability index value is on record for SEIGTSDQIVPEYQEDSDISSFFC [TRIB1] ?
**A:** 4.39

###

experimental details: protein stability index of a GFP-peptide fusion (GPS, HEK-293T) (PSI 1-6); higher = more stable
study conditions: treatment: MLN4924 1 uM, 8 h; c terminus: a fixed tail appended
Give protein stability index for every item shown.
Quick one: just the number, no unit, thanks!

**Q:** Which protein stability index value is on record for WIKEEAAERYLYFPNWAMALLITL [SLC6A17] ?
**A:** 2.81

**Q:** Which protein stability index value is on record for NMDPAGLDDEDDTSIGMPSLMYRS [RETREG3] ?
**A:** 4.91

**Q:** Which protein stability index value is on record for KKAYDYFQAKKIPIVSSLADPLDT [PDZK1] ?
**A:** 3.88

**Q:** Which protein stability index value is on record for LPPSMERGYPPPRDSYSSSSRGAP [RBMX] ?
**A:** 4.53

**Q:** Which protein stability index value is on record for QKASLLIQQALTMFPGVLLPLLES [TCF25] ?
**A:** 3.51

**Q:** Which protein stability index value is on record for GKTPVCHQCHKVIRGRYLVALGHA [PDLIM7] ?
**A:** 2.72

###

experimental details: protein stability index of a GFP-peptide fusion (GPS, HEK-293T) (PSI 1-6); higher = more stable
study conditions: treatment: DMSO; c terminus: a fixed tail appended
measurement label: protein stability index
Quick one: just the number, no unit, thanks!

**Q:** Which protein stability index value is on record for LLDLDPEVECLKANTNEVLWAVVA [GOLPH3] ?
**A:** 1.94

**Q:** Which protein stability index value is on record for PCSEFMEPSSDPSLLGEPCAGPGF [SPAG8] ?
**A:** 4.15

**Q:** Which protein stability index value is on record for VQDWYHFHYVDILALLPAAWEDSH [SCNN1D] ?
**A:** 2.77

**Q:** Which protein stability index value is on record for LRLENNHCHIEESEHVLKKAHKYS [VPS39] ?
**A:** 2.87

**Q:** Which protein stability index value is on record for RYESLTDPSKLDSGKELKIDIIPN [HSP90AB1] ?
**A:** 4.33

**Q:** Which protein stability index value is on record for YGSIHGPTDYQVNIQIIEYEKKQT [BTBD1] ?
**A:** 2.96

**Q:** Which protein stability index value is on record for GFGILGHSQNLAKQQRNEVSFVIH [SEPHS2] ?
**A:** 2.25

**Q:** Which protein stability index value is on record for FEDAKEKMREFTKTIKRPFGVKYN [TPH1] ?
**A:** 2.9

**Q:** Which protein stability index value is on record for FCISLLRERFMECLMIGRDLVRLL [INTS3] ?
**A:** 2.27

**Q:** Which protein stability index value is on record for TGIEYIVAQGPTNQGLNVMVWNQN [ADAMTSL2] ?
**A:** 2.17

**Q:** Which protein stability index value is on record for SCSQSHCCSRYLCMGAMSLFLPCL [SPRY1] ?
**A:** 2.52

**Q:** Which protein stability index value is on record for EEITEESLEESVGKPLYLIFRNLC [INTS3] ?
**A:** 2.79

**Q:** Which protein stability index value is on record for EDHIDDAKYCGHLYGLGSGSSYVQ [CNOT7] ?
**A:** 3.38

**Q:** Which protein stability index value is on record for KVQKPLLQAPFLPPKAPPPVIKIP [RHOBTB1] ?
**A:** 3.17
